Reference source: patent US20210388102A1

Experimental Target: T1, cynomolgus monkey ADAM9 (cynoADAM9) on cells (cynomolgus monkey, UniProt Q13443 206-819 (human entry))
T1 construct: also called Cho-K/cynoADAM9 clone 2; Cho-K/cynoADAM9 clone #16
T1 chain: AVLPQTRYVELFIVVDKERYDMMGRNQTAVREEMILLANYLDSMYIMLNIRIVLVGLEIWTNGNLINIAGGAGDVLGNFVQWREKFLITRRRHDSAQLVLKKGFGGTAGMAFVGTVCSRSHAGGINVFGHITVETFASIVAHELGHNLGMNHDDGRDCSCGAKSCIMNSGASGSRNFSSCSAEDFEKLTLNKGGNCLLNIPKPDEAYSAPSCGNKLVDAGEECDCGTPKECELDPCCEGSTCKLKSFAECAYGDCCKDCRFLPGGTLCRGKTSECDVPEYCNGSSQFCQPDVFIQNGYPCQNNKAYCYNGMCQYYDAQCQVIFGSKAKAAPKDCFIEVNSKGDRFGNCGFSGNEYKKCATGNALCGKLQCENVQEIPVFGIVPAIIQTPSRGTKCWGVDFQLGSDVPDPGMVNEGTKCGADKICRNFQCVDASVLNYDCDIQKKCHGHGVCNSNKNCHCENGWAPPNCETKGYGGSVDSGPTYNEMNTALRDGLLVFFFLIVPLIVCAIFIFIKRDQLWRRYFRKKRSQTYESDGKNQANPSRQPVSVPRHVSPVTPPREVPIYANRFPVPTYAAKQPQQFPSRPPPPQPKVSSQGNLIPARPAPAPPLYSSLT
Protocol: FACS, 300-19 cells expressing cynomolgus ADAM9
Consider the following binders and their measured EC50 readings.
Field: numeric (nM). Do not append units.

Below: 4 binders and their reported EC50.
INSERT INTO assay_data (binder, readout, reported_result) VALUES
  ('chMAB-A-DGN549 (antibody, V domains shown, lysine-linked DGN549, sites not given; DGN549-L (compound D2) linked to lysine residues of the antibody, sites not given; average 2.7 mol DGN549/mol antibody) VH: QVQLQQPGAELVKPGASVKLSCKASGYTFTSYWMHWVKQRPGQGLEWIGEIIPINGHTNYNEKFKSKATLTLDKSSSTAYMQLSSLASEDSAVYYCARGGYYYYGSRDYFDYWGQGTTLTVSS VL: DIVLTQSPASLAVSLGQRATISCKASQSVDYDGDSYMNWYQQIPGQPPKLLIYAASDLESGIPARFSGSGSGTDFTLNIHPVEEEDAATYYCQQSHEDPFTFGGGTKLEIK', 'EC50', 153),
  ('chMAB-A-sSPDB-DM4 (antibody, V domains shown, lysine-linked DM4, sites not given; DM4 linked through sulfo-SPDB to lysine residues of the antibody, sites not given; average 3.4 mol DM4/mol antibody) VH: QVQLQQPGAELVKPGASVKLSCKASGYTFTSYWMHWVKQRPGQGLEWIGEIIPINGHTNYNEKFKSKATLTLDKSSSTAYMQLSSLASEDSAVYYCARGGYYYYGSRDYFDYWGQGTTLTVSS VL: DIVLTQSPASLAVSLGQRATISCKASQSVDYDGDSYMNWYQQIPGQPPKLLIYAASDLESGIPARFSGSGSGTDFTLNIHPVEEEDAATYYCQQSHEDPFTFGGGTKLEIK', 'EC50', 275),
  ('hMAB-A(2.2)-DGN549 (antibody, human IgG1, kappa, V domains shown, lysine-linked DGN549, sites not given; DGN549-L (compound D2) linked to lysine residues of the antibody, sites not given; average 2.7 mol DGN549/mol antibody) VH: EVQLVESGGGLVKPGGSLRLSCAASGFTFSSYWMHWVRQAPGKGLEWVGEIIPIFGHTNYNEKFKSRFTISLDNSKNTLYLQMGSLRAEDTAVYYCARGGYYYYGSRDYFDYWGQGTTVTVSS VL: DIVMTQSPDSLAVSLGERATISCKASQSVDYSGDSYMNWYQQKPGQPPKLLIYAASDLESGIPARFSGSGSGTDFTLTISSLEPEDFATYYCQQSHEDPFTFGQGTKLEIKR', 'EC50', 22.3),
  ('hMAB-A(2.2)-sSPDB-DM4 (antibody, human IgG1, kappa, V domains shown, lysine-linked DM4, sites not given; DM4 linked through sulfo-SPDB to lysine residues of the antibody, sites not given; average 3.2 mol DM4/mol antibody, also called huMAB-A(2.2)-sSPDB-DM4) VH: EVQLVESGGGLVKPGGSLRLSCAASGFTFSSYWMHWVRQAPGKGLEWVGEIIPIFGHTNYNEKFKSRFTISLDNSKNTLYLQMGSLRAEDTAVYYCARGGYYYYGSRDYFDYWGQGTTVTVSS VL: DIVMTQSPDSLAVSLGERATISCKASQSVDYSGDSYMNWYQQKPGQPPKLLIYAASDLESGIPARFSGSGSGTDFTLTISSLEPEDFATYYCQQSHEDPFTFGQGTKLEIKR', 'EC50', 13.3);

Could you now look at the following binder, please?
Enquiry: Which EC50 value is on record for chMAB-A (antibody, V domains shown, also called chimeric version of MAB-A; chimeric chMAB-A) VH: QVQLQQPGAELVKPGASVKLSCKASGYTFTSYWMHWVKQRPGQGLEWIGEIIPINGHTNYNEKFKSKATLTLDKSSSTAYMQLSSLASEDSAVYYCARGGYYYYGSRDYFDYWGQGTTLTVSS VL: DIVLTQSPASLAVSLGQRATISCKASQSVDYDGDSYMNWYQQIPGQPPKLLIYAASDLESGIPARFSGSGSGTDFTLNIHPVEEEDAATYYCQQSHEDPFTFGGGTKLEIK ?
Return: 112
